test: pKa of SNAFR-2 from absorption and emission spectra as a function of pH; type: physicochemical; settings: 50 mM phosphate buffer with 0.25% DMSO, Em, λex 514, λ1/λ2 539/595; 50 mM phosphate buffer; read-out: pKa
attribute_measured: pKa
Write no unit; give the number alone.

[ask] May I ask what pKa has been recorded for `O=c1ccc2c(-c3ccccc3)c3ccc4cc(O)ccc4c3oc-2c1` ?
[reply] 8.31

* * *

experiment: pKa of SNAFR-2 from absorption and emission spectra as a function of pH; assay type: physicochemical; conditions: 50 mM phosphate buffer with 0.25% DMSO, Abs, λisobestic 304, λ1/λ2 296/304; 50 mM phosphate buffer; read-out: pKa
attribute_measured: pKa
Simply state the number, no unit and no words.

[ask] Given `O=c1ccc2c(-c3ccccc3)c3ccc4cc(O)ccc4c3oc-2c1` , state its recorded pKa.
[reply] 8.54

* * *

assay: pKa of SNAFR-2 from absorption and emission spectra as a function of pH; assay type: physicochemical; conditions: 50 mM phosphate buffer with 0.25% DMSO, different isosbestic points; phosphate buffer with 0.25% DMSO; read-out: pKa values calculated from absorption spectra
attribute_measured: pKa

[ask] Item under review: O=c1ccc2c(-c3ccccc3)c3ccc4cc(O)ccc4c3oc-2c1 [SNAFR-2] . Reported pKa?
[reply] 8.47 to 8.68

This collection of values is drawn from patent US8350064B2.
